Give measured lp (ionization potential) for each item. Keep answers brief.
ASSAY_NOTES: Ionization potential by electron photoemission in air
Type: physicochemical
ASSAY_CONTEXT: CTM layer without binder; error ±0.03 eV
Number in eV, nothing else.

Entry `CCCCCCCn1c2ccccc2c2cc(C=NN(CCCCCN(N=Cc3ccc4c(c3)c3ccccc3n4CCCCCCC)c3ccccc3)c3ccccc3)ccc21` , lp (ionization potential) reported as 5.23

The value of lp (ionization potential) measured for the compound `CCn1c2ccccc2c2cc(C=NN(CCCCCCCCCCN(N=Cc3ccc4c(c3)c3ccccc3n4CC)c3ccccc3)c3ccccc3)ccc21` turned out to be 5.44

Entry under test: `CCn1c2ccccc2c2cc(C=NN(CCCCCN(N=Cc3ccc4c(c3)c3ccccc3n4CC)c3ccccc3)c3ccccc3)ccc21` . Its lp (ionization potential) was 5.34

Value of lp (ionization potential) reported for the compound `CCCCCCCn1c2ccccc2c2cc(C=NN(CCCCCCCCCCN(N=Cc3ccc4c(c3)c3ccccc3n4CCCCCCC)c3ccccc3)c3ccccc3)ccc21` is 5.38

====

ASSAY_NOTES: Thermal transitions by differential scanning calorimetry (glass transition temperature)
Assay type: physicochemical
ASSAY_CONTEXT: neat sample, DSC
QUANTITY_MEASURED: Tg without binder (°C)
Hi! Could you send only the number? It should be in °C, unit omitted.

Recorded result, `CCn1c2ccccc2c2cc(C=NN(CCCCCN(N=Cc3ccc4c(c3)c3ccccc3n4CC)c3ccccc3)c3ccccc3)ccc21` , Tg without binder: 84.4

The reported Tg without binder of the compound `CCCCCCCn1c2ccccc2c2cc(C=NN(CCCCCCCCCCN(N=Cc3ccc4c(c3)c3ccccc3n4CCCCCCC)c3ccccc3)c3ccccc3)ccc21` was 29.3

# Tg without binder (compound: `CCn1c2ccccc2c2cc(C=NN(CCCCCCCCCCN(N=Cc3ccc4c(c3)c3ccccc3n4CC)c3ccccc3)c3ccccc3)ccc21` ) is 46

Summary for this compound, `CCCCCCCn1c2ccccc2c2cc(C=NN(CCCCCN(N=Cc3ccc4c(c3)c3ccccc3n4CCCCCCC)c3ccccc3)c3ccccc3)ccc21` : Tg without binder is 44.5

// `CCn1c2ccccc2c2cc(C=NN(CCCCN(N=Cc3ccc4c(c3)c3ccccc3n4CC)c3ccccc3)c3ccccc3)ccc21` : Tg without binder value = 79.1

====

ASSAY_NOTES: Thermal transitions by differential scanning calorimetry (glass transition temperature)
Format: physicochemical
ASSAY_CONTEXT: mixture with Polycarbonate Z binder, DSC
QUANTITY_MEASURED: Tg with 50% PCZ (°C)
Quick reminder: number only, in °C, skip the unit.

Entry under test: `CCCCCCCn1c2ccccc2c2cc(C=NN(CCCCCN(N=Cc3ccc4c(c3)c3ccccc3n4CCCCCCC)c3ccccc3)c3ccccc3)ccc21` . Its Tg with 50% PCZ was 78.3

Quick note, Tg with 50% PCZ for `CCCCCCCn1c2ccccc2c2cc(C=NN(CCCCCCCCCCN(N=Cc3ccc4c(c3)c3ccccc3n4CCCCCCC)c3ccccc3)c3ccccc3)ccc21` landed at 56.9

Just so you know, measured Tg with 50% PCZ for `CCn1c2ccccc2c2cc(C=NN(CCCCCCCCCCN(N=Cc3ccc4c(c3)c3ccccc3n4CC)c3ccccc3)c3ccccc3)ccc21` came out at 83.7

Entry `CCn1c2ccccc2c2cc(C=NN(CCCCCN(N=Cc3ccc4c(c3)c3ccccc3n4CC)c3ccccc3)c3ccccc3)ccc21` , Tg with 50% PCZ reported as 102.5
